# Experiment: Lipophilicity, log P of the compound
# Assay type: physicochemical
# Measurement Parameters: octanol/water
Recorded Metric: logP
Simply state the number, no unit and no words.

* C=C(c1ccc2ccccc2c1)C1CCC2(CC1)COC(Nc1ccc(OC)cc1)OO2 (centres undefined) | 5.46
* C=C(c1ccc2ccc3ccccc3c2c1)C1CCC2(CC1)COC(Nc1ccc(OC)cc1)OO2 (centres undefined) | 6.46

QUERY: Using the record for C=C(c1ccc2c(c1)Cc1ccccc1-2)C1CCC2(CC1)COC(Nc1ccc(OC)cc1)OO2 (centres undefined) , report its logP.
RESULT: 6.2

QUERY: Using the record for C=C(c1ccc2ccccc2c1)C1CCC2(CC1)COC(Nc1ccc(C(F)(F)F)cc1)OO2 (single isomer, unassigned; less polar) , report its logP.
RESULT: 6.51

QUERY: Using the record for C=C(c1ccc2c(c1)Cc1ccccc1-2)C1CCC2(CC1)COC(Nc1cc(Cl)cc(Cl)c1)OO2 (centres undefined) , report its logP.
RESULT: 7.44

QUERY: Using the record for C=C(c1ccc2c(c1)Cc1ccccc1-2)C1CCC2(CC1)COC(Nc1ccc(F)cc1)OO2 (centres undefined) , report its logP.
RESULT: 6.48

QUERY: Using the record for C=C(c1cccc2ccccc12)C1CCC2(CC1)COC(Nc1ccc(Cl)cc1)OO2 (centres undefined) , report its logP.
RESULT: 6.15

QUERY: Using the record for C=C(c1ccc2c(c1)Cc1ccccc1-2)C1CCC2(CC1)COC(Nc1ccccc1-c1ccccc1)OO2 (centres undefined) , report its logP.
RESULT: 8

QUERY: Using the record for C=C(c1ccc2ccccc2c1)C1CCC2(CC1)COC(Nc1ccc(F)cc1)OO2 (centres undefined) , report its logP.
RESULT: 5.75

----------
# Experiment: Lipophilicity, log P of the compound
# Format: physicochemical
# Measurement Parameters: octanol/water
Each item that follows carries a reported logP.
Simply state the number, no unit and no words.

• C=C(c1ccc2c(c1)Cc1ccccc1-2)C1CCC2(CC1)COC(Nc1ccc(Cl)cc1)OO2 (stereo not drawn) = 6.88
• C=C(c1ccc2ccc3ccccc3c2c1)C1CCC2(CC1)COC(Nc1ccc(F)cc1)OO2 (stereo not drawn) = 6.74
• C=C(c1cccc2ccccc12)C1CCC2(CC1)COC(Nc1ccccc1-c1ccccc1)OO2 (stereo not drawn) = 7.26

QUERY: Using the record for C=C(c1ccc2ccc3ccccc3c2c1)C1CCC2(CC1)COC(Nc1ccccc1)OO2 (stereo not drawn) , report its logP.
RESULT: 6.59

QUERY: Using the record for C=C(c1ccc2ccccc2c1)C1CCC2(CC1)COC(Nc1ccccc1)OO2 (stereo not drawn) , report its logP.
RESULT: 5.59

QUERY: Using the record for C=C(c1cccc2ccccc12)C1CCC2(CC1)COC(Nc1cc(Cl)cc(Cl)c1)OO2 (stereo not drawn) , report its logP.
RESULT: 6.71

QUERY: Using the record for C=C(c1ccc2ccccc2c1)C1CCC2(CC1)COC(Nc1ccc(Cl)cc1)OO2 (stereo not drawn) , report its logP.
RESULT: 6.15

QUERY: Using the record for C=C(c1ccc2c(c1)Cc1ccccc1-2)C1CCC2(CC1)COC(Nc1ccccc1)OO2 (stereo not drawn) , report its logP.
RESULT: 6.33

QUERY: Using the record for C=C(c1cccc2ccccc12)C1CCC2(CC1)COC(Nc1ccc(OC)cc1)OO2 (stereo not drawn) , report its logP.
RESULT: 5.46
